Each entry below carries its reported apparent half-life, whole-body clearance.
procedureSummary: Whole-body clearance of indium-111 labeled electrophilic benzyl-EDTA derivatives
Format: in vivo
measurementSetup: indium-111 labeled chelate, BALB/c mice, after tail-vein injection
readoutName: apparent half-life, whole-body clearance (h)

O=C(O)CN(CC(=O)O)CC(Cc1ccc(NC(=O)CCl)cc1)N(CC(=O)O)CC(=O)O (stereo not shown) [CABE, chloroacetamidobenzyl-EDTA]
9
O=C(O)CN(CC(=O)O)CC(Cc1ccc(NC(=O)CBr)cc1)N(CC(=O)O)CC(=O)O (stereo not shown) [BABE, bromoacetamidobenzyl-EDTA]
41

The measurements presented in this section are drawn from patent US20060063209A1.
